Kindly state pIC50 for each of the entries shown.
Schema: pIC50 number; meaning minus log10 of the concentration expressed in molar units.

Report pIC50 on Sodium-dependent dopamine transporter (Rattus norvegicus) for this entry: "COc1ccc2c(c1)c(C)c1c3c(cc4c(c32)OCO4)CCN1C" 4.33

Report pIC50 on Sodium-dependent dopamine transporter (Rattus norvegicus) for this entry: COc1cc2c(cc1O)[C@H](Cc1ccc(O)cc1)NCC2 [L-COCLAURINE] 4.85

Report pIC50 on Sodium-dependent dopamine transporter (Rattus norvegicus) for this entry: COc1cc2c(cc1O)C[C@@H]1NCCc3cc(O)c(OC)c-2c31 [NORBOLDINE] 4.78

Report pIC50 on Sodium-dependent dopamine transporter (Rattus norvegicus) for this entry: COc1cc2c(cc1OC)[C@@H](Cc1ccc(Oc3cc(C[C@H]4c5cc(OC)c(OC)cc5CCN4C)ccc3OC)cc1)N(C)CC2 [DIMETHYLGRISABINE] 5.96
